Observed Ki for UniProtKB P19020, reported per entry below.
Sequence (P19020 whole entry): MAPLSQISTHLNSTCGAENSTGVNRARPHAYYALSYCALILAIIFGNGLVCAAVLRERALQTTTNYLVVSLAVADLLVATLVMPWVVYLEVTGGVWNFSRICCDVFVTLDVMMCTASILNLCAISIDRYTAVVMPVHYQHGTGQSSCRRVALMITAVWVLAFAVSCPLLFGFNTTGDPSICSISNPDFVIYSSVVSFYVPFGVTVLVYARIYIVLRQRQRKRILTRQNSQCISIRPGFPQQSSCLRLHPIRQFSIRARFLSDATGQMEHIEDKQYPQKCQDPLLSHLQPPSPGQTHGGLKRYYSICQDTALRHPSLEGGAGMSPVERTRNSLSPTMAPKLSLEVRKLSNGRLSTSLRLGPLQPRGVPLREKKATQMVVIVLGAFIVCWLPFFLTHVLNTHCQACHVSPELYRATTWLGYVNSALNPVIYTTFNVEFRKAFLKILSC
RECORDED_METRIC: Ki (nM)

CCCN(CC[C@]1(O)C[C@@H](NC(=O)c2ccc3ccccc3c2)C1)C1CC1c1ccc(Cl)cc1 (stereo partly drawn) :: 4.6
CCCN(CC[C@]1(O)C[C@@H](NC(=O)c2ccc3ccccc3c2)C1)[C@H]1C[C@@H]1c1cccc(Cl)c1 :: 28
CCCN(CC[C@]1(O)C[C@@H](NC(=O)c2ccc3ccccc3c2)C1)[C@H]1C[C@@H]1c1ccccc1Cl :: 19
